# System: biotinyl-Val-oxazolone
# test-method-notes: self-aminoacylation, catalytic enhancement (BVO) (fold over background); higher = more active; k-Seq, kA / k0A0; sequences stand for … in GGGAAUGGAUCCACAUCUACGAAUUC…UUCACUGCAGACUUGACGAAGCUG
Variants at the floor of the assay were thinned out.
self-aminoacylation of 3 or higher: Fulfilled. Under 3: Not fulfilled.

monomer-sequence: CCAGACUUCAAGCAAUCAGUC [Fam1B.1 aminoacylation ribozyme variant]
assigned-category: Not fulfilled

monomer-sequence: CUUCACCUGGGUCAUCGGGUG [Fam2.2 aminoacylation ribozyme variant]
assigned-category: Fulfilled

monomer-sequence: AAUACCCUGGACAUCGAGUGA [Fam2.1 aminoacylation ribozyme variant]
assigned-category: Not fulfilled

monomer-sequence: AUGACCCUGGUCAACGAGUGA [Fam2.1 aminoacylation ribozyme variant]
assigned-category: Fulfilled

monomer-sequence: AAGUGUGCUAAUAGUCGCACG [Fam3.1 aminoacylation ribozyme variant]
assigned-category: Not fulfilled

monomer-sequence: ACUCACCUCGGUCAUCGGGUG [Fam2.2 aminoacylation ribozyme variant]
assigned-category: Fulfilled

monomer-sequence: UUUCACCUAGAUCAUCGGGUG [Fam2.2 aminoacylation ribozyme variant]
assigned-category: Not fulfilled

monomer-sequence: AUUCUCCUUGGUCAUCGGGUG [Fam2.2 aminoacylation ribozyme variant]
assigned-category: Fulfilled

monomer-sequence: CUACUUGAAACAAUGGGUCUG [Fam1A.1 aminoacylation ribozyme variant]
assigned-category: Not fulfilled

monomer-sequence: AAGUUUGCUUAUAGUCGCGAG [Fam3.1 aminoacylation ribozyme variant]
assigned-category: Not fulfilled

monomer-sequence: AUUCACCUAGGUCAUCAAGUG [Fam2.2 aminoacylation ribozyme variant]
assigned-category: Not fulfilled

monomer-sequence: AUUACCCUCGUAAUCGAGUGA [Fam2.1 aminoacylation ribozyme variant]
assigned-category: Fulfilled

monomer-sequence: AGGUUUGCUAAUAGUCGCAAC [Fam3.1 aminoacylation ribozyme variant]
assigned-category: Not fulfilled

monomer-sequence: CUUACCCUGGACAUCGAGUGA [Fam2.1 aminoacylation ribozyme variant]
assigned-category: Fulfilled

monomer-sequence: AACUUUGCUGAUAGUCGCAAG [Fam3.1 aminoacylation ribozyme variant]
assigned-category: Not fulfilled

monomer-sequence: AAGUUUGCUAGCAGUCGCAAG [Fam3.1 aminoacylation ribozyme variant]
assigned-category: Not fulfilled

monomer-sequence: CCAGACUUCAAGCAAUCGAUC [Fam1B.1 aminoacylation ribozyme variant]
assigned-category: Not fulfilled

* * *

# System: biotinyl-Val-oxazolone
# test-method-notes: self-aminoacylation, catalytic enhancement (BVO) (fold over background); higher = more active; k-Seq, kA / k0A0; sequences stand for … in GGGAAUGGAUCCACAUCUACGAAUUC…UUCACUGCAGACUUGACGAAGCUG
This sample holds only a part of the variants without activity.
# Lookup of reported self-aminoacylation keyed by entry

monomer-sequence: AAGUUUGCUAAUAGGCGGAAG [Fam3.1 aminoacylation ribozyme variant]
self-aminoacylation: 0.89

monomer-sequence: UUUCACAUAGGUCAUCGGGUG [Fam2.2 aminoacylation ribozyme variant]
self-aminoacylation: 5.12

monomer-sequence: CUAGUACAAACAAUCGGUCUG [Fam1A.1 aminoacylation ribozyme variant]
self-aminoacylation: 0.775

monomer-sequence: CCACACUCUAAGCAAUCGGUC [Fam1B.1 aminoacylation ribozyme variant]
self-aminoacylation: 1.06

* * *

# Tested on: biotinyl-Phe-oxazolone
# test-method-notes: self-aminoacylation, catalytic enhancement (BFO) (fold over background); higher = more active; k-Seq, kA / k0A0; sequences stand for … in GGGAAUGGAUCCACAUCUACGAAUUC…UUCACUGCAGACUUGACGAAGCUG
This sample holds only a part of the variants without activity.
recorded-endpoint: self-aminoacylation

monomer-sequence: CUACUUCAAAAAAUCGGUCGG [Fam1A.1 aminoacylation ribozyme variant]
target-of-assay: biotinyl-Phe-oxazolone
reported-result: 4.54
//
monomer-sequence: AUACUUCAAACAGUCGGUCUG [Fam1A.1 aminoacylation ribozyme variant]
target-of-assay: biotinyl-Phe-oxazolone
reported-result: 0.584
//
monomer-sequence: AAGUUUACUAAUAGUCGUAAG [Fam3.1 aminoacylation ribozyme variant]
target-of-assay: biotinyl-Phe-oxazolone
reported-result: 2.3
//
monomer-sequence: AGUCACCAAGGUCAUCGGGUG [Fam2.2 aminoacylation ribozyme variant]
target-of-assay: biotinyl-Phe-oxazolone
reported-result: 51.2

* * *

# System: biotinyl-Trp-oxazolone
# test-method-notes: self-aminoacylation, catalytic enhancement (BWO) (fold over background); higher = more active; k-Seq, kA / k0A0; sequences stand for … in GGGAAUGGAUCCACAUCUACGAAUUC…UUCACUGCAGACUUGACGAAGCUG
Fewer inactive variants are shown than the library holds.

monomer-sequence: AUUAUCCUGGUCAUCAAGUGA [Fam2.1 aminoacylation ribozyme variant]
self-aminoacylation: 4.39

monomer-sequence: CAACUUCAAACAAUCGGUCUA [Fam1A.1 aminoacylation ribozyme variant]
self-aminoacylation: 13.9

monomer-sequence: CUGAUUCAAACAAUCGGUCUG [Fam1A.1 aminoacylation ribozyme variant]
self-aminoacylation: 6.12

monomer-sequence: CCACAGAUCAAGCAAUCGGUC [Fam1B.1 aminoacylation ribozyme variant]
self-aminoacylation: 1.61

monomer-sequence: AUUACCCUGGUCAUCUUGUGA [Fam2.1 aminoacylation ribozyme variant]
self-aminoacylation: 4.57

monomer-sequence: AUUACCCUGGUCGUCGAGUAA [Fam2.1 aminoacylation ribozyme variant]
self-aminoacylation: 0.721

monomer-sequence: CUACUUCAAACAAUCGGUUUU [Fam1A.1 aminoacylation ribozyme variant]
self-aminoacylation: 1.44

monomer-sequence: AAGUUGGCUAAUAGUCGCGAG [Fam3.1 aminoacylation ribozyme variant]
self-aminoacylation: 3.96

monomer-sequence: CCACAGUUCAUGCAAUCGGUC [Fam1B.1 aminoacylation ribozyme variant]
self-aminoacylation: 0.884

monomer-sequence: AUCACCCUGGUCUUCGAGUGA [Fam2.1 aminoacylation ribozyme variant]
self-aminoacylation: 9.14

monomer-sequence: CGACUUCAAACAAUCGGUUUG [Fam1A.1 aminoacylation ribozyme variant]
self-aminoacylation: 32.7

monomer-sequence: ACUCACCUGGGUCAUCGGGUG [Fam2.2 aminoacylation ribozyme variant]
self-aminoacylation: 8.05

monomer-sequence: AUUCGCCUGGUCAUCGAGUGA [Fam2.1 aminoacylation ribozyme variant]
self-aminoacylation: 6.48

monomer-sequence: CCACACUCUAAGCAAUCGGUC [Fam1B.1 aminoacylation ribozyme variant]
self-aminoacylation: 0.903

monomer-sequence: AUGCACCUAGGACAUCGGGUG [Fam2.2 aminoacylation ribozyme variant]
self-aminoacylation: 5.58

monomer-sequence: CUACUUCAAAAAAUCGGUUUG [Fam1A.1 aminoacylation ribozyme variant]
self-aminoacylation: 6.33

monomer-sequence: CUACUUCAAAUAAUCGGUCUU [Fam1A.1 aminoacylation ribozyme variant]
self-aminoacylation: 5.86

monomer-sequence: CUACCUAAAACAAUCGGUCUG [Fam1A.1 aminoacylation ribozyme variant]
self-aminoacylation: 0.697

monomer-sequence: AUUCACCUAGGUUAACGGGUG [Fam2.2 aminoacylation ribozyme variant]
self-aminoacylation: 2.83

monomer-sequence: CGACACUUCAACCAAUCGGUC [Fam1B.1 aminoacylation ribozyme variant]
self-aminoacylation: 13.4

monomer-sequence: AUGCACCUAGGUCAUCGGUUG [Fam2.2 aminoacylation ribozyme variant]
self-aminoacylation: 1.48

monomer-sequence: CUACUGCAAACAAUCGGUCUU [Fam1A.1 aminoacylation ribozyme variant]
self-aminoacylation: 0.857

monomer-sequence: AUUCACCUGGGUGAUCGGGUG [Fam2.2 aminoacylation ribozyme variant]
self-aminoacylation: 6.7

monomer-sequence: AUUCACCUAGGUCUUCGGGUC [Fam2.2 aminoacylation ribozyme variant]
self-aminoacylation: 1.79

monomer-sequence: CCUCAGUUCAAGCAAUCGGUC [Fam1B.1 aminoacylation ribozyme variant]
self-aminoacylation: 3.37

monomer-sequence: CCACACUUCAAGGAAUAGGUC [Fam1B.1 aminoacylation ribozyme variant]
self-aminoacylation: 0.5

monomer-sequence: AUUACCGUGGUAAUCGAGUGA [Fam2.1 aminoacylation ribozyme variant]
self-aminoacylation: 9.95

monomer-sequence: CUAGUUAAAACAAUCGGUCUG [Fam1A.1 aminoacylation ribozyme variant]
self-aminoacylation: 0.622

monomer-sequence: AUUACCCUGGUCGACGAGUGA [Fam2.1 aminoacylation ribozyme variant]
self-aminoacylation: 6.05

monomer-sequence: AUUACUCGGGUCAUCGAGUGA [Fam2.1 aminoacylation ribozyme variant]
self-aminoacylation: 6.64

monomer-sequence: CCACACUUCACGCAAUCAGUC [Fam1B.1 aminoacylation ribozyme variant]
self-aminoacylation: 0.962

monomer-sequence: CCACAGUACAAGCAAUCGGUC [Fam1B.1 aminoacylation ribozyme variant]
self-aminoacylation: 0.861

monomer-sequence: AAGUUCGCUAACAGUCGCAAG [Fam3.1 aminoacylation ribozyme variant]
self-aminoacylation: 1.06

monomer-sequence: CUUCUUCAAAUAAUCGGUCUG [Fam1A.1 aminoacylation ribozyme variant]
self-aminoacylation: 7.57

monomer-sequence: CUGCUUCAAGCAAUCGGUCUG [Fam1A.1 aminoacylation ribozyme variant]
self-aminoacylation: 42.8
